Data provenance: paper PMC9643456

Task for the reader: assign each of the following molecules its reported Hemolysis percent, 25 μM.
- System: human red blood cells
- method: Hemolytic activity
- Type: cell-based
- settings: red cells of human, 18 h, 25
Square brackets hold non-standard residues; d marks the D form. Peptide text beside a SMILES is read from it.
Quick reminder: number only, in %, skip the unit.

Provide value of Hemolysis percent, 25 μM for this record tested with human red blood cells: CC[C@@H](C)[C@@H](NC(=O)[C@@H](Cc1c[nH]c2ccccc12)NC(=O)[C@H](NC(=O)[C@@H](CC(C)C)NC(=O)[C@H](N)Cc1c[nH]c2ccccc12)C(C)C)C(=O)N[C@H](Cc1ccc(O)cc1)C(=O)N[C@H](CCCNC(=N)N)C(=O)N[C@H](CCCNC(=N)N)C(=O)N[C@H](CCCNC(=N)N)C(N)=O [WCopW33] (H-[dW][dL][dV][dW][dI][dY][dR][dR][dR]-NH2)
3.49

Provide value of Hemolysis percent, 25 μM for this record tested with human red blood cells: CC[C@@H](C)[C@@H](NC(=O)[C@@H](Cc1c[nH]c2ccccc12)NC(=O)[C@@H](CC(C)C)NC(=O)[C@@H](CC(C)C)NC(=O)[C@H](N)Cc1c[nH]c2ccccc12)C(=O)NCC(=O)N[C@H](CC(C)C)C(=O)N[C@H](CCCNC(=N)N)C(=O)N[C@H](CCCCN)C(=O)N[C@H](CCCCN)C(N)=O [WCopW8] (H-[dW][dL][dL][dW][dI]G[dL][dR][dK][dK]-NH2)
3.85

* * *

- Test system: human red blood cells
- method: Hemolytic activity
- Format: cell-based
- settings: red cells of human, 18 h, 50
Square brackets hold non-standard residues; d marks the D form. Peptide text beside a SMILES is read from it.
Task for the reader: assign each of the following compounds its reported Hemolysis percent, 50 μM.
Quick reminder: number only, in %, skip the unit.

Entry CC[C@@H](C)[C@@H](NC(=O)[C@@H](Cc1c[nH]c2ccccc12)NC(=O)[C@H](NC(=O)[C@@H](CC(C)C)NC(=O)[C@H](N)Cc1c[nH]c2ccccc12)C(C)C)C(=O)N[C@H](Cc1c[nH]c2ccccc12)C(=O)N[C@H](CCCNC(=N)N)C(=O)N[C@H](CCCNC(=N)N)C(N)=O [WCopW32] (H-[dW][dL][dV][dW][dI][dW][dR][dR]-NH2) has what Hemolysis percent, 50 μM?
2.95

Entry CC[C@@H](C)[C@@H](NC(=O)[C@@H](Cc1c[nH]c2ccccc12)NC(=O)[C@@H](CC(C)C)NC(=O)[C@H](N)Cc1c[nH]c2ccccc12)C(=O)N[C@H](Cc1c[nH]c2ccccc12)C(=O)N[C@H](CCCNC(=N)N)C(=O)N[C@H](CCCNC(=N)N)C(=O)N[C@H](CCCNC(=N)N)C(N)=O [WCopW41] (H-[dW][dL][dW][dI][dW][dR][dR][dR]-NH2) has what Hemolysis percent, 50 μM?
0.04

Entry CC[C@@H](C)[C@@H](NC(=O)[C@@H](Cc1c[nH]c2ccccc12)NC(=O)[C@@H](CC(C)C)NC(=O)[C@@H](CC(C)C)NC(=O)[C@H](N)Cc1c[nH]c2ccccc12)C(=O)N[C@H](C)C(=O)N[C@H](CC(C)C)C(=O)N[C@H](CCCNC(=N)N)C(=O)N[C@H](CCCCN)C(=O)N[C@H](CCCCN)C(N)=O [WCopW7] (H-[dW][dL][dL][dW][dI][dA][dL][dR][dK][dK]-NH2) has what Hemolysis percent, 50 μM?
10.05
